- System: L1210
- test: Antiproliferative activity against mouse L1210 cells after 48 hrs by Coulter counting analysis
- Type: functional, cell-based
- condition_parameters: L1210, 48 h
pIC50: −log10 of the molar value.
measured_endpoint: pIC50

The cases that follow already have their pIC50 on record.
Tell me measured pIC50 for `C=C(Br)C(=O)Nc1ccc(/C=C/C(=O)c2ccc(OC)cc2)cc1` please. 6.01

Tell me measured pIC50 for `Nc1ccc(/C=C/C(=O)c2cccc3ccccc23)cc1` please. 4.49

Tell me measured pIC50 for `C=C(Br)C(=O)Nc1ccc(C(=O)/C=C/c2cc(OC)cc(OC)c2)cc1` please. 5.57

Tell me measured pIC50 for `C=C(Br)C(=O)Nc1ccc(C(=O)/C=C/c2ccc(N(C)C)cc2)cc1` please. 5.72

a. C=C(Br)C(=O)Nc1ccc(C(=O)/C=C/c2cc(OC)c(OC)c(OC)c2)cc1
b. C=C(Br)C(=O)Nc1ccc(C(=O)/C=C/c2ccc(OC)cc2)cc1
Lab notebook, comparison: a versus b , higher pIC50 goes to which? Lab note: record the label of whichever item you select. b
(b: 6.05, a: 5.82)

A. C=C(Br)C(=O)Nc1ccc(/C=C/C(=O)c2ccc(C)cc2)cc1
B. C=C(Br)C(=O)Nc1ccc(/C=C/C(=O)c2cc(OC)c(OC)c(OC)c2)cc1
Lab notebook, comparison: A versus B , higher pIC50 goes to which? Lab note: record the label of whichever item you select. B

I. Nc1ccc(/C=C/C(=O)c2ccc(Br)cc2)cc1
II. COc1ccc(/C=C/C(=O)c2ccc(N)cc2)c(OC)c1
III. C=C(Br)C(=O)Nc1ccc(C(=O)/C=C/c2ccc(OC)c(OC)c2)cc1
Please list these in order of increasing pIC50. Thank you! Order the labels as requested and list them. I, II, III
(I: 4.05, II: 4.47, III: 5.89)

====

- System: MOLT-4
- test: Antiproliferative activity against human MOLT4 cells after 48 hrs by Coulter counting analysis
- Format: functional, cell-based
- condition_parameters: MOLT-4, 48 h
pIC50: −log10 of the molar value.
measured_endpoint: pIC50

The cases that follow already have their pIC50 on record.
Tell me measured pIC50 for `CCOc1ccc(C(=O)/C=C/c2ccc(N)cc2)cc1` please. 4.96

Tell me measured pIC50 for `C=C(Br)C(=O)Nc1ccc(/C=C/C(=O)c2ccc(Cl)c(Cl)c2)cc1` please. 5.74

Tell me measured pIC50 for `Nc1ccc(/C=C/C(=O)c2ccc(Cl)cc2)cc1` please. 5.11

Tell me measured pIC50 for `Cc1ccc(C(=O)/C=C/c2ccc(N)cc2)cc1` please. 4.92

Tell me measured pIC50 for `C=C(Br)C(=O)Nc1ccc(C(=O)/C=C/c2cccc(OC)c2OC)cc1` please. 6.31

Tell me measured pIC50 for `Nc1ccc(/C=C/C(=O)c2ccc(Br)cc2)cc1` please. 5.00

Tell me measured pIC50 for `COc1ccc(/C=C/C(=O)c2ccc(N)cc2)cc1` please. 5.07

Tell me measured pIC50 for `COc1cc(C(=O)/C=C/c2ccc(N)cc2)cc(OC)c1OC` please. 5.82

P. Nc1ccc(/C=C/C(=O)c2cccs2)cc1
Q. C=C(Br)C(=O)Nc1ccc(/C=C/C(=O)c2ccc(OCC)cc2)cc1
R. COc1cc(/C=C/C(=O)c2ccc(N)cc2)cc(OC)c1OC
Order field: pIC50 | Direction: descending (largest first) Order the labels as requested and list them. Q, R, P

a. C=C(Br)C(=O)Nc1ccc(/C=C/C(=O)c2ccc(C)cc2)cc1
b. COc1cccc(C(=O)/C=C/c2ccc(N)cc2)c1
c. Nc1ccc(C(=O)/C=C/c2ccccc2)cc1
d. C=C(Br)C(=O)Nc1ccc(/C=C/C(=O)c2ccccc2)cc1
Please list these in order of increasing pIC50. Thank you! Order the labels as requested and list them. b, c, d, a

====

- Tested on: HeLa
- test: Antiproliferative activity against human HeLa cells after 48 hrs by Coulter counting analysis
- Type: functional, cell-based
measured_endpoint: IC50 (µM)

Tell me measured IC50 for `C=C(Br)C(=O)Nc1ccc(C(=O)/C=C/c2ccc(OC)c(OC)c2OC)cc1` please. 0.51

Tell me measured IC50 for `C=C(Br)C(=O)Nc1ccc(/C=C/C(=O)c2ccc(C)cc2)cc1` please. 2.1

Tell me measured IC50 for `C=C(Br)C(=O)Nc1ccc(/C=C/C(=O)c2cccs2)cc1` please. 0.34

I. COc1ccc(/C=C/C(=O)c2ccc(N)cc2)c(OC)c1
II. COc1cc(C(=O)/C=C/c2ccc(N)cc2)cc(OC)c1OC
Lab notebook, comparison: I versus II , higher IC50 goes to which? Lab note: record the label of whichever item you select. I

====

- Tested on: L1210
- test: Antiproliferative activity against mouse L1210 cells after 48 hrs by Coulter counting analysis
- Format: functional, cell-based
- condition_parameters: L1210, 48 h
measured_endpoint: IC50 (µM)

A. C=C(Br)C(=O)Nc1ccc(C(=O)/C=C/c2ccc(OC)cc2OC)cc1
B. COc1cc(C(=O)/C=C/c2ccc(N)cc2)cc(OC)c1OC
Lab notebook, comparison: A versus B , higher IC50 goes to which? Lab note: record the label of whichever item you select. B
(B: 14 µM, A: 0.52 µM)

a. C=C(Br)C(=O)Nc1ccc(/C=C/C(=O)c2cccc3ccccc23)cc1
b. Nc1ccc(/C=C/C(=O)c2ccc(I)cc2)cc1
Lab notebook, comparison: a versus b , higher IC50 goes to which? Lab note: record the label of whichever item you select. b

A. C=C(Br)C(=O)Nc1ccc(C(=O)/C=C/c2cccc(OC)c2OC)cc1
B. Cc1ccc(C(=O)/C=C/c2ccc(N)cc2)cc1
C. C=C(Br)C(=O)Nc1ccc(/C=C/C(=O)c2ccc(Br)cc2)cc1
D. C=C(Br)C(=O)Nc1ccc(/C=C/C(=O)c2cccs2)cc1
E. COc1cccc(/C=C/C(=O)c2ccc(N)cc2)c1
Please list these in order of increasing IC50. Thank you! Order the labels as requested and list them. D, C, A, E, B
(D: 0.25 µM, C: 0.62 µM, A: 1.1 µM, E: 22 µM, B: 49 µM)

a. Nc1ccc(/C=C/C(=O)c2ccccc2)cc1
b. C=C(Br)C(=O)Nc1ccc(/C=C/C(=O)c2ccccc2)cc1
Kindly identify the item with the lower IC50 figure among these two: a and b Lab note: record the label of whichever item you select. b

====

- System: L1210
- test: Antiproliferative activity against mouse L1210 cells after 48 hrs by Coulter counting analysis
- Type: functional, cell-based
- condition_parameters: L1210, 48 h
measured_endpoint: IC50 (µM)

Tell me measured IC50 for `C=C(Br)C(=O)Nc1ccc(/C=C/C(=O)c2cccc(OC)c2)cc1` please. 2.1

Tell me measured IC50 for `COc1ccc(/C=C/C(=O)c2ccc(N)cc2)cc1OC` please. 25

Tell me measured IC50 for `Nc1ccc(/C=C/C(=O)c2ccc(Cl)c(Cl)c2)cc1` please. 26

P. C=C(Br)C(=O)Nc1ccc(/C=C/C(=O)c2ccc(I)cc2)cc1
Q. Nc1ccc(/C=C/C(=O)c2cccs2)cc1
Lab notebook, comparison: P versus Q , higher IC50 goes to which? Lab note: record the label of whichever item you select. Q

====

- Tested on: HeLa
- test: Antiproliferative activity against human HeLa cells after 48 hrs by Coulter counting analysis
- Format: functional, cell-based
measured_endpoint: IC50 (µM)

Tell me measured IC50 for `Nc1ccc(/C=C/C(=O)c2ccc(Cl)c(Cl)c2)cc1` please. 31

A. Nc1ccc(/C=C/C(=O)c2ccc(Br)cc2)cc1
B. C=C(Br)C(=O)Nc1ccc(/C=C/C(=O)c2cc(OC)c(OC)c(OC)c2)cc1
C. COc1cccc(/C=C/C(=O)c2ccc(N)cc2)c1
D. C=C(Br)C(=O)Nc1ccc(/C=C/C(=O)c2cccc3ccccc23)cc1
Order field: IC50 | Direction: descending (largest first) Order the labels as requested and list them. A, C, D, B

====

- System: CCRF-CEM
- test: Antiproliferative activity against human CEM cells after 48 hrs by Coulter counting analysis
- Format: cell-based
measured_endpoint: IC50 (nM)

The cases that follow already have their IC50 on record.
Tell me measured IC50 for `COc1cc(/C=C/C(=O)c2ccc(N)cc2)cc(OC)c1OC` please. 2300

Tell me measured IC50 for `CCOc1ccc(C(=O)/C=C/c2ccc(N)cc2)cc1` please. 15000

Tell me measured IC50 for `CN(C)c1ccc(/C=C/C(=O)c2ccc(N)cc2)cc1` please. 20000

1. C=C(Br)C(=O)Nc1ccc(C(=O)/C=C/c2ccc(N(C)C)cc2)cc1
2. COc1cc(C(=O)/C=C/c2ccc(N)cc2)cc(OC)c1OC
Kindly identify the item with the lower IC50 figure among these two: 1 and 2 Lab note: record the label of whichever item you select. 1
(1: 1500 nM, 2: 2500 nM)

P. C=C(Br)C(=O)Nc1ccc(/C=C/C(=O)c2cc(OC)c(OC)c(OC)c2)cc1
Q. Nc1ccc(/C=C/C(=O)c2ccc(I)cc2)cc1
R. COc1ccc(/C=C/C(=O)c2ccc(N)cc2)cc1OC
S. C=C(Br)C(=O)Nc1ccc(/C=C/C(=O)c2ccc(Cl)c(Cl)c2)cc1
Order field: IC50 | Direction: descending (largest first) Order the labels as requested and list them. Q, R, S, P
(Q: 16000 nM, R: 9300 nM, S: 1700 nM, P: 1100 nM)

1. C=C(Br)C(=O)Nc1ccc(C(=O)/C=C/c2ccc(OC)cc2OC)cc1
2. COc1ccc(/C=C/C(=O)c2ccc(N)cc2)c(OC)c1
3. COc1ccc(/C=C/C(=O)c2ccc(N)cc2)c(OC)c1OC
4. C=C(Br)C(=O)Nc1ccc(C(=O)/C=C/c2ccccc2OC)cc1
Order field: IC50 | Direction: descending (largest first) Order the labels as requested and list them. 2, 3, 1, 4
